- Tested on: maize HMG13 gene in maize A188 immature embryos
- protocolNotes: Genome editing SDN-1 in regenerated T0 plants of maize A188 (Example 5)
- Type: cell-based
- recordedConditions: T0 events
Known Total SDN-1 of a selection of molecules
Just the number.

RBP7: artificial regeneration booster protein, SEQ ID NO: 38 (CDS SEQ ID NO: 26), construct pABM-BdEF1_RBP7 (protein) MVSKGEEVIKEFSGSTRWNPTAEQLSLLKELYYRNGIRTPSADQIRQISARLSRYGKIEGKNVFYWFQNHKARERQKKRLSTVGCDPALIEMGNVASLEFGTESALESLSSGPSSELREAPTRKFYEKKTVGENSTIINPVEQNCTLSCGTSQEFQYAVDSRRVMKAMEEKQATDDEPDGNKWTESNRHVKTLPLFPLHNNVETLPLFPEDSGSLDLELELGFASGGSAGSVDTLPLFPREAAGSGEFATAAATSGSQRASALDLCLSLGNESCGLHDN : 6
RBP5: artificial regeneration booster protein, SEQ ID NO: 36 (CDS SEQ ID NO: 24), construct pABM-BdEF1_RBP5 (protein) MVSKGEEVIKEFSGSTRWNPTAEQLSLLKELYYRNGIRTPSADQIRQISARLSRYGKIEGKNVFYWFQNHKARERQKKRLSTVGCGSAGSAAGSGEFRHVKTLPLFPLHNNVETLPLFPEDSGSLDLELELGFASATAAATSGSQRASALDLCLSLGNESCGLHDN : 11

Now let's try a different one.
stdin: Output measured Total SDN-1 for this item: RBP8: artificial regeneration booster protein, SEQ ID NO: 39 (CDS SEQ ID NO: 27), construct pABM-BdEF1_RBP8 (protein) MVSKGEEVIKEFSGSTRWNPTAEQVKVLREIYYRAGLRTPSADQIRQISSQLKRYGKVEGKNVFYWFQNHKARERQKKRLSTVGSAGSAAGSGEFRHVKTLPLFPLHNNEDSGSGLDLDLNLELRLSATAAATSGSQRASALDLDLELRLGFALGNESCGLHDN
stdout: 9
